# tgt: 5-HT2B receptor (Homo sapiens)
# Construct: host or cells: HEK293
# Sequence (P41595 whole entry): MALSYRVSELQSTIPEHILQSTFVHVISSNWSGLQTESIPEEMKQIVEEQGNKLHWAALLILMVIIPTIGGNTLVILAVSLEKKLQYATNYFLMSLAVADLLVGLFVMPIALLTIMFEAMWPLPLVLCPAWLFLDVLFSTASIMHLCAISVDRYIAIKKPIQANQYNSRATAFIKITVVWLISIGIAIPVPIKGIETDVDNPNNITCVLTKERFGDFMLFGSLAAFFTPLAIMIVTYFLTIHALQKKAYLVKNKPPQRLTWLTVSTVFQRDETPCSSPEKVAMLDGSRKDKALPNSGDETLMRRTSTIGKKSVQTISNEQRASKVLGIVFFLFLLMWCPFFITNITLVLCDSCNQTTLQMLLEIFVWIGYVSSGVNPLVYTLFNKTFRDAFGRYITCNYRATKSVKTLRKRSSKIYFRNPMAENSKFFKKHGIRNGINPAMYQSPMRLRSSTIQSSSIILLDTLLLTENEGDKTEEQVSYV
# protocol notes: cell-based
# condition info: Ca^2+ flux, agonist
readout label: 5-HT2B % Act @ Max Dose (%)
Answers are plain numbers, in %.

Use the examples below as a reference point.
>>> print(df.to_string())
                                   compound  endpoint_value
0  CCN(CC)C(=O)[C@@H]1C=C2c3cccc4[nH]c(Br)c(c34)C[C@H]2N(CCC(F)(F)F)C1 [Compound 42]            2.58
1  CCCN1C[C@H](C(=O)N[C@H](C)CC)C=C2c3cccc4[nH]c(Br)c(c34)C[C@H]21 [Compound 46]           79.00

// batch mode: one 5-HT2B % Act @ Max Dose value per listed entry
1. CCN(CC)C(=O)[C@@H]1C=C2c3cccc4[nH]c(Br)c(c34)C[C@H]2N(C)C1 [Compound 35]
2. CCCN1C[C@H](C(=O)N(CC)CC)C=C2c3cccc4c3C(CN4)C[C@H]21 (mixture of isomers) [Compound 36]
3. CCN(CC)C(=O)[C@@H]1C=C2c3cccc4[nH]c(Br)c(c34)C[C@H]2N(CCCF)C1 [Compound 41]

["−0.13", 110.53, 84.51]

// batch mode: one 5-HT2B % Act @ Max Dose value per listed entry
1. CCN(CC)C(=O)[C@@H]1C=C2c3cccc4[nH]cc(c34)C[C@H]2N(CCc2ccccc2OC)C1 [Compound 11]
2. CCC[C@@H](C)NC(=O)[C@@H]1C=C2c3cccc4[nH]c(Br)c(c34)C[C@H]2N(C)C1 [Compound 45]
3. C[C@H]1C[C@H](C)N1C(=O)[C@@H]1C=C2c3cccc4[nH]cc(c34)C[C@H]2N(CCCF)C1 [Compound 26]
4. CC[C@@H](C)NC(=O)[C@@H]1C=C2c3cccc4[nH]c(Br)c(c34)C[C@H]2N(C)C1 [Compound 43]
5. CCCN1C[C@H](C(=O)N2[C@@H](C)C[C@@H]2C)C=C2c3cccc4[nH]c(Br)c(c34)C[C@H]21 [Compound 47]
6. CCCN1C[C@H](C(=O)N(CC)CC)C=C2c3cccc4[nH]c(Br)c(c34)C[C@H]21 [Compound 9]
7. CC[C@@H](C)NC(=O)[C@@H]1C=C2c3cccc4[nH]cc(c34)C[C@H]2N(CCC(F)(F)F)C1 [Compound 40]

1. 2.5
2. −0.31
3. 100.66
4. 1.00
5. 87.01
6. 89.6
7. 8.46

// batch mode: one 5-HT2B % Act @ Max Dose value per listed entry
1. CN1C[C@H](C(=O)N(CCF)CCF)C=C2c3cccc4[nH]cc(c34)C[C@H]21 [Compound 38]
2. CCC(CC)NC(=O)[C@@H]1C=C2c3cccc4[nH]c(Br)c(c34)C[C@H]2N(C)C1 [Compound 44]
3. CCN(CC)C(=O)[C@@H]1C=C2c3cccc4c3C(CN4)C[C@H]2N(C)C1 (mixture of isomers) [Compound 37]

1: 28.13; 2: 15.68; 3: 24.06
